test.name: Microsomal stability in human liver microsomes assessed as substrate remaining in presence of NADPH measured after 60 mins by LC-MS/MS analysis
experimental.parameters: 1 h
value.type: residual activity (%)
The reply should contain only the number, in %.

What does the data say about its residual activity? Entry: `CC12CC3CC(C)(C1)CC(NC(=O)Nc1ccc(C(=O)N4CCCCC4)cc1)(C3)C2` 12.4

---

// values below are IC50; system is Bifunctional epoxide hydrolase 2 (Mus musculus, UniProt P34914)
Sequence (P34914 whole entry): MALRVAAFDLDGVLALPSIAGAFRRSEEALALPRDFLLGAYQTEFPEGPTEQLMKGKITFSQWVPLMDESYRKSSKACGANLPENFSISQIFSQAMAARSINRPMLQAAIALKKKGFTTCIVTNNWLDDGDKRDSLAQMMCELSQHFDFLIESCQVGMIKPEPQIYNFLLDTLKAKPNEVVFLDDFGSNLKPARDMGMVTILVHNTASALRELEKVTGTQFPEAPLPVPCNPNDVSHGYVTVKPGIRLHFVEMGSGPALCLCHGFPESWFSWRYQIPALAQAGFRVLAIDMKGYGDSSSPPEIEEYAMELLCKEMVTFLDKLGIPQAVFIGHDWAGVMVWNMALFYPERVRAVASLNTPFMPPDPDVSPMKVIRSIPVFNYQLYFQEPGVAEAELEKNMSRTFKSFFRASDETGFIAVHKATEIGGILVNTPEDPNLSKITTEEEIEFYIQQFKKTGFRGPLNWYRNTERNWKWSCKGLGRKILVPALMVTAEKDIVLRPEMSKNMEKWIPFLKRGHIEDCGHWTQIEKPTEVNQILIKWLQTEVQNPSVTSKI
Give your result in nM as a bare value.

Some entries whose results are on file:
molecule: CC(C)CNC(=O)c1ccc(NC(=O)NC23CC4CC(C)(CC(C)(C4)C2)C3)cc1
IC50 / nM: 0.4
//
molecule: CC(C)CNC(=O)CCCC(=O)NC1C2CC3CC(C2)CC1C3 (stereo not given)
IC50 / nM: 2270
//
molecule: CC12CC3CC(C)(C1)CC(NC(=O)Nc1ccc(C(=O)NC4CCCCC4)cc1)(C3)C2
IC50 / nM: 0.4
//
molecule: CC12CC3CC(C)(C1)CC(NC(=O)CCC(=O)NC1CCCCC1)(C3)C2
IC50 / nM: 180
//
molecule: CC(C)CNC(=O)c1ccc(NC(=O)NC23CC4CC(CC(O)(C4)C2)C3)cc1
IC50 / nM: 291
//
molecule: CC12CC3CC(C)(C1)CC(NC(=O)c1ccc(C(=O)NC4CCCCC4)cc1)(C3)C2
IC50 / nM: 1020
//
molecule: CC(C)CNC(=O)CCC(=O)NC(C)C12CC3CC(CC(C3)C1)C2 (stereo not given)
IC50 / nM: 43.5
//
molecule: O=C(Nc1ccc(C(=O)NC2CCCCC2)cc1)NC12CC3CC(CC(O)(C3)C1)C2
IC50 / nM: 94.2
//
molecule: CC(C)CNC(=O)CCC(=O)NC12CC3CC(C)(CC(C)(C3)C1)C2
IC50 / nM: 4130
//
molecule: CC12CC3CC(C)(C1)CC(NC(=O)c1ccc(C(=O)N4CCCCC4)cc1)(C3)C2
IC50 / nM: 60700

Recorded IC50 of `O=C(Nc1ccc(C(=O)N2CCCCC2)cc1)NC12CC3CC(CC(O)(C3)C1)C2` , please. 88.8

Same read-out for O=C(Nc1ccc(C(=O)NC2CCCCC2)cc1)NC1C2CC3CC(C2)CC1C3 (stereo not given) ? 0.4

Can you check `CC(C)CNC(=O)CCCC(=O)NC12CC3CC(C)(CC(C)(C3)C1)C2` next? 225

Next molecule up: `CC12CC3CC(C)(C1)CC(NC(=O)CCC(=O)N1CCCCC1)(C3)C2` 21700

Also check CC(NC(=O)Nc1ccc(C(=O)NC2CCCCC2)cc1)C12CC3CC(CC(C3)C1)C2 (stereo not given) 13.7

---

test.name: Cmax in Sprague-Dawley rat at 3 mg/kg, iv administered as single dose upto 24 hrs by LC-MS analysis
Type: ADME, organism-based
Design: route intravenous, dose 3 mg/kg, time <=24
experimental.parameters: in vivo
value.type: Cmax (µM)
Numbers only here, please. The scale is µM.

// returns reported Cmax for input `CC12CC3CC(C)(C1)CC(NC(=O)Nc1ccc(C(=O)N4CCCCC4)cc1)(C3)C2` 3.64

---

test.name: Microsomal stability in human liver microsomes assessed as substrate remaining in presence of NADPH measured after 30 mins by LC-MS/MS analysis
experimental.parameters: 0.5 h
value.type: residual activity (%)
Provide the reading as a plain figure in %.

Field request: residual activity | item: `CC12CC3CC(C)(C1)CC(NC(=O)Nc1ccc(C(=O)N4CCCCC4)cc1)(C3)C2` 17.1
